# target system: β1-adrenergic receptor (Homo sapiens (Human), UniProt P08588)
# Sequence (P08588 whole entry, species assumed): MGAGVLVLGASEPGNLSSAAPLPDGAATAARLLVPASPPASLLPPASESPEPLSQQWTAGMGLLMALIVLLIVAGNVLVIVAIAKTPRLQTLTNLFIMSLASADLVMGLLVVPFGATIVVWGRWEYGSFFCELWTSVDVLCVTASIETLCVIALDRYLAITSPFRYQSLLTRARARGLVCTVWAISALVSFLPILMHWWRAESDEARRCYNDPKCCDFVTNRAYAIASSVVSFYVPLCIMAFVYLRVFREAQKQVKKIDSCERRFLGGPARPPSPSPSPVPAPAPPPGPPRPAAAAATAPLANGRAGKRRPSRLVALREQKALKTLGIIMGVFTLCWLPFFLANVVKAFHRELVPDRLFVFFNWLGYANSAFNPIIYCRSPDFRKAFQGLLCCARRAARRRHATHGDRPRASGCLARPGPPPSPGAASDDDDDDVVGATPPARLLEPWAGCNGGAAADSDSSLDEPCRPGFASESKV
# protocol notes: cAMP Gs dynamic HTRF assay, β1 expressing CHO cells
# Format: cell-based
# measurement setup: β1 EC50 (nM), cAMP HTRF
parameter: EC50

Value (EC50, β1-adrenergic receptor (Homo sapiens (Human), UniProt P08588)) for record CC(C)(C)NC[C@H](O)c1cccc(C(F)(F)F)n1 [Compound 03-3] = 10 to 100 nM

----------
# target system: UniProt P08588
# protocol notes: cAMP Gs dynamic HTRF assay, β1 expressing CHO cells
# Assay type: cell-based
# measurement setup: cAMP HTRF; read-out: β1 EC50
Listed here: items and their measured EC50.

The recorded EC50 for entry `CC(C)(C)NC[C@H](O)c1cc(C(F)(F)F)ccn1` equals > 1000 nM

The recorded EC50 for entry `Cc1cccnc1[C@@H](O)CNC(C)(C)C` equals > 1000 nM

The recorded EC50 for entry `CC(C)(C)NC[C@H](O)c1ncccc1C(F)(F)F` equals > 1000 nM

----------
# protocol notes: Microsomal stability (dog)
# Assay type: in vitro ADME
# measurement setup: liver microsomes 0.5 mg/mL; method gives CLint in μL/min/mg protein
Listed here: items and their measured Intrinsic clearance (CLint), dog liver microsomes.
Please give a number only; it is taken to be in µL/min/mg protein.

smiles_notation=CC(C)(C)NC[C@H](O)c1cccc(C#N)n1 val=4.32

The recorded Intrinsic clearance (CLint), dog liver microsomes for entry `CC(C)(C)NC[C@H](O)c1cccc(C(F)(F)F)n1` equals 7.99

----------
# protocol notes: Rat pharmacokinetic studies
# Type: in vivo, male SD rats
# measurement setup: male, SD, plasma, PO 5 mg/kg, read-out: MRTInf—obs
parameter: MRT inf (h)
Please give a number only; it is taken to be in h.

smiles_notation=CC(C)(C)NC[C@H](O)c1cccc(C#N)n1 val=2.62

The recorded MRT inf for entry `CC(C)(C)NC[C@H](O)c1cccc(C(F)(F)F)n1` equals 3.93

----------
# protocol notes: Rat CNS exposure measurement (plasma, CSF, brain)
# Type: in vivo, male SD rats
# measurement setup: male, SD, brain, iv, 1 mg/kg, IV 1 mg/kg, read-out: Concentration, Brain
parameter: concentration at 1 h (ng/g)
Please give a number only; it is taken to be in ng/g.

The recorded concentration at 1 h for entry `CC(C)(C)NC[C@H](O)c1cccc(C(F)(F)F)n1` equals 680

----------
# protocol notes: Dog pharmacokinetic studies
# Type: in vivo, male Beagle dogs
# measurement setup: male, Beagle, in vivo, PO 0.5 mg/kg
parameter: Tmax
Returns: string containing the numeric result and its unit.

The recorded Tmax for entry `Cc1ncccc1[C@@H](O)CNC(C)(C)C` equals 30 min

----------
# protocol notes: Dog pharmacokinetic studies
# Type: in vivo, male Beagle dogs
# measurement setup: male, Beagle, plasma, PO 0.3 mg/kg
parameter: Tmax (min)
Please give a number only; it is taken to be in min.

The recorded Tmax for entry `CC(C)(C)NC[C@H](O)c1cccc(C#N)n1` equals 25.2

----------
# target system: β2 adrenergic receptor (Homo sapiens (Human))
# Sequence (P07550 whole entry, species assumed): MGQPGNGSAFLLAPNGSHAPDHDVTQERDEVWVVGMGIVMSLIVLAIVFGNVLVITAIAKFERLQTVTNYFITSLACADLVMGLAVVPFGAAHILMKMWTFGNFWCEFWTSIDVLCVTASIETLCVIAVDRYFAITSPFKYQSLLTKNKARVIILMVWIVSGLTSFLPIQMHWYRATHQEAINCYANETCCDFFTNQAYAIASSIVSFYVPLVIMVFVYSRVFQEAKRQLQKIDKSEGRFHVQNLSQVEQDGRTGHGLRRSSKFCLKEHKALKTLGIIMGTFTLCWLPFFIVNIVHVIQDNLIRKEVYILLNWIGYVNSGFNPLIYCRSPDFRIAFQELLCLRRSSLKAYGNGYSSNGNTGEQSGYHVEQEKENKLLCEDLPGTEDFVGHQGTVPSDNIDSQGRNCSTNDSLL
# protocol notes: cAMP Gs dynamic HTRF assay, β2 expressing CHO cells
# Format: cell-based
# measurement setup: B2-AR; CHO-K1 (HitHunter); read-out: Average pEC50 [Receptor subtype: B2-AR; Cell type: CHO-K1 (HitHunter)] (converted)
Listed here: items and their measured EC50.

smiles_notation=CC(C)(C)NC[C@H](O)c1cccc(-c2ccccc2F)n1 parameter=EC50 val="< 10 nM"

The recorded EC50 for entry `COc1ncccc1[C@@H](O)CNC(C)(C)C` equals < 10 nM

The recorded EC50 for entry `CC(C)c1cccc([C@H](O)CNC(C)(C)C)n1` equals 100 to 1000 nM

The recorded EC50 for entry `CC(C)(C)NC[C@H](O)c1cccnc1OC(F)(F)F` equals 10 to 100 nM

The recorded EC50 for entry `CC(C)(C)NC[C@H](O)c1ccnc(C(F)(F)F)n1` equals 100 to 1000 nM

----------
# protocol notes: Dog pharmacokinetic studies
# Type: in vivo, male Beagle dogs
# measurement setup: male, Beagle, plasma, PO 2.5 mg/kg
parameter: MRT (h)
Please give a number only; it is taken to be in h.

The recorded MRT for entry CC(C)(C)NC[C@H](O)c1cccc(C(F)(F)F)n1 [Compound 03-3] equals 3.19

----------
# protocol notes: Mouse CNS exposure measurement (plasma, CSF, brain)
# Type: in vivo, male C57BL/6J mice
# measurement setup: male, C57BL/6J, brain, PO 5 mg/kg, 100 min, read-out: Concentration, Brain
parameter: concentration at 100 min (ng/g)
Please give a number only; it is taken to be in ng/g.

The recorded concentration at 100 min for entry `CC(C)(C)NC[C@H](O)c1cccc(C#N)n1` equals 989

----------
# protocol notes: Rat pharmacokinetic studies
# Type: in vivo, male SD rats
# measurement setup: male, SD, plasma, IV 1 mg/kg
parameter: AUC(0-inf) (ng·h/mL)
Please give a number only; it is taken to be in ng·h/mL.

compound="CC(C)(C)NC[C@H](O)c1cccc(C(F)(F)F)n1 [Compound 03-3]" parameter=AUC(0-inf) val=552

# evaluate next
The recorded AUC(0-inf) for entry CC(C)(C)NC[C@H](O)c1cccc(C#N)n1 [Compound 03-5] equals 463

----------
Listed here: items and their measured EC50.
# target system: β2 adrenergic receptors in human astrocytoma cells (1321N1) (Homo sapiens (Human), UniProt P07550)
# Sequence (P07550 whole entry): as the sequence (P07550 whole entry, species assumed) above
# protocol notes: cAMP HTRF assay in human astrocytoma cells (1321N1)
# Format: cell-based
# measurement setup: Endogenous receptor; 1321N1 cells; read-out: Average pEC50 [Receptor subtype: Endogenous; Cell type: 1321N1] (converted)

Examples from the recorded data:
smiles_notation=CNc1cccc([C@@H](O)CNC(C)(C)C)n1 val="10 to 100 nM"
smiles_notation=CC(C)(C)NC[C@H](O)c1cccc(Nc2ccccc2)n1 val="< 10 nM"
smiles_notation=CC(C)c1cccc([C@@H](O)CNC(C)(C)C)n1 val="< 10 nM"
smiles_notation=CC(C)(C)NC[C@H](O)c1cccc(OC(F)(F)F)n1 val="< 10 nM"
smiles_notation=O[C@@H](CNC1Cc2ccccc2C1)c1cccc(C(F)(F)F)n1 val="10 to 100 nM"
smiles_notation=CC(C)(C)NC[C@H](O)c1cccc(-c2ccc[nH]2)n1 val="< 10 nM"

# evaluate next
The recorded EC50 for entry `Cc1cccc([C@@H](O)CNC(C)(C)C)n1` equals 100 to 1000 nM

----------
Listed here: items and their measured EC50.
# target system: β1-adrenergic receptor (Homo sapiens (Human))
# protocol notes: cAMP Gs dynamic HTRF assay, β1 expressing CHO cells
# Format: cell-based
# measurement setup: B1-AR; CHO-K1 (HitHunter); read-out: Average pEC50 [Receptor subtype: B1-AR; Cell type: CHO-K1 (HitHunter)] (converted)

smiles_notation=CC(C)(C)NC[C@H](O)c1cccc(N)n1 target_system="β1-adrenergic receptor (Homo sapiens (Human))" parameter=EC50 val="> 1000 nM"
smiles_notation=CC(C)(C)NC[C@@H](O)c1cccc(-c2ccc(F)cc2)n1 target_system="β1-adrenergic receptor (Homo sapiens (Human))" parameter=EC50 val="100 to 1000 nM"
smiles_notation=CC(C)(C)NC[C@H](O)c1cccc(-c2ccccc2)n1 target_system="β1-adrenergic receptor (Homo sapiens (Human))" parameter=EC50 val="10 to 100 nM"
smiles_notation=CC(C)c1cccc([C@@H](O)CNC(C)(C)C)n1 target_system="β1-adrenergic receptor (Homo sapiens (Human))" parameter=EC50 val="10 to 100 nM"
smiles_notation=COc1ccc(CC(C)(C)NC[C@@H](O)c2cccc(C(F)(F)F)n2)cc1 target_system="β1-adrenergic receptor (Homo sapiens (Human))" parameter=EC50 val="> 1000 nM"
smiles_notation=CC(C)(C)NC[C@H](O)c1cc(C(F)(F)F)cnc1C1=CCCC1 target_system="β1-adrenergic receptor (Homo sapiens (Human))" parameter=EC50 val="> 1000 nM"

Value (EC50, β1-adrenergic receptor (Homo sapiens (Human))) for record `Cc1ccc([C@@H](O)CNC(C)(C)C)c(C2=CCCC2)n1` = > 1000 nM

Value (EC50, β1-adrenergic receptor (Homo sapiens (Human))) for record `CC(C)(C)NC[C@H](O)c1cccc(NC2CCC2)n1` = 10 to 100 nM

Value (EC50, β1-adrenergic receptor (Homo sapiens (Human))) for record `O[C@H](CNC1Cc2ccccc2C1)c1cccc(C(F)(F)F)n1` = > 1000 nM

Value (EC50, β1-adrenergic receptor (Homo sapiens (Human))) for record `CC(C)(C)NC[C@@H](O)c1ccc(C(F)(F)F)cn1` = 100 to 1000 nM

Value (EC50, β1-adrenergic receptor (Homo sapiens (Human))) for record `COc1ncccc1[C@@H](O)CNC(C)(C)C` = < 10 nM

Value (EC50, β1-adrenergic receptor (Homo sapiens (Human))) for record `CC(C)(C)NC[C@H](O)c1cccc(C2=CCCC2)n1` = 10 to 100 nM

Value (EC50, β1-adrenergic receptor (Homo sapiens (Human))) for record `Cc1cc([C@H](O)CNC(C)(C)C)ccn1` = 100 to 1000 nM

Value (EC50, β1-adrenergic receptor (Homo sapiens (Human))) for record `Cc1nc(NC2CC2)ccc1[C@@H](O)CNC(C)(C)C` = > 1000 nM
